Experimental target: Carbonic anhydrase 2 (Homo sapiens)
Test summary: compounds binding carbonic anhydrase 2 – biochemical, small-molecule microarray, Alexa647-labelled CAII, profiling panel (AID 1122)
Conditions used: CAII-A647 binding fluorescence, higher = more signal
Assign satisfied whenever composite z-score does not fall below 0.6; assign not satisfied whenever it does.

[
  {
    "Compound": "CCOC(=O)C1=C[C@@H](C(C)(C)C)N(S(=O)(=O)c2ccc(C)cc2)[C@H]1c1ccc(C#N)cc1",
    "Assigned category": "satisfied"
  },
  {
    "Compound": "CCCC[C@H]1C[C@@H]1[C@@H]1N(C(C)=O)[C@H](c2cccc(OC)c2)CC12CC2",
    "Assigned category": "not satisfied"
  },
  {
    "Compound": "C=CCNC(=O)[C@@H]1[C@H]2C(=O)O[C@H](c3ccccc3)[C@H](c3ccccc3)N2[C@H](c2ccc(OCCO)cc2)[C@@]12C(=O)Nc1ccc(C#CC3(O)CCCCCC3)cc12",
    "Assigned category": "not satisfied"
  },
  {
    "Compound": "CN(C)CCCNC(=O)[C@@]1(C)c2ccccc2C(=O)N(Cc2ccc(OC(F)(F)F)cc2)[C@H]1c1ccc(CO)cc1",
    "Assigned category": "satisfied"
  },
  {
    "Compound": "CC(C)NC(=O)[C@@H]1c2ccccc2C(=O)N(Cc2ccccc2C(F)(F)F)[C@H]1c1ccc(CO)cc1",
    "Assigned category": "satisfied"
  },
  {
    "Compound": "COCCOC(=O)N1C(=O)[C@@]2(c3cc(C#CCCO)ccc31)[C@H](C(N)=O)[C@H]1C(=O)O[C@H](c3ccccc3)[C@H](c3ccccc3)N1[C@@H]2c1ccccc1OCCO",
    "Assigned category": "not satisfied"
  },
  {
    "Compound": "COc1ccc([Si](C)(C)[C@H]2[C@H](CC(=O)N3Cc4ccccc4C[C@H]3CO)O[C@@]3(C(=O)N(C)c4ccccc43)[C@@H]2C)cc1",
    "Assigned category": "satisfied"
  },
  {
    "Compound": "CC(C)NC(=O)[C@@]1(C)c2ccccc2C(=O)N(Cc2ccccc2)[C@H]1c1ccc(CO)cc1",
    "Assigned category": "satisfied"
  },
  {
    "Compound": "O=C(NCc1ccc(F)cc1)[C@H]1C[C@H]2C(=O)N3CCC[C@H]3C(=O)N2[C@H]1c1ccc(O)cc1",
    "Assigned category": "not satisfied"
  },
  {
    "Compound": "COC(=O)[C@@]1(Cc2ccccc2)[C@H]2c3cc(C(=O)N(C)C)n(Cc4ccc(C(F)(F)F)nc4)c3C[C@H]2CN1C(=O)c1ccccc1",
    "Assigned category": "satisfied"
  },
  {
    "Compound": "O=C1NC(=O)C2C1C=CC(C(O)c1ccc(B(O)O)cc1)N2Nc1ccc(Cl)cc1Cl (stereo not given)",
    "Assigned category": "satisfied"
  },
  {
    "Compound": "COC(=O)[C@H](Cc1ccc(O)cc1)N[C@@H](/C=C/C1CC1)[C@H](O)Cc1ccccc1",
    "Assigned category": "not satisfied"
  },
  {
    "Compound": "Cc1ccc(S[C@]2(C(=O)NC3CC3)CC(=O)N(C(C)C)[C@@H]2c2ccc(CO)cc2I)cc1",
    "Assigned category": "satisfied"
  },
  {
    "Compound": "CCCCC(=C=CC[C@H](O)c1ccc(CO)o1)CCO",
    "Assigned category": "not satisfied"
  },
  {
    "Compound": "CCOC(=O)C1=CC[C@@H](c2ccccc2)N(S(=O)(=O)c2ccc(C)cc2)[C@H]1c1ccccc1I",
    "Assigned category": "satisfied"
  },
  {
    "Compound": "C=C(CCCC)/C(=C/C[C@H](OC(C)=O)c1cccc(OCCO)c1)c1cnc2ccccc2c1",
    "Assigned category": "satisfied"
  },
  {
    "Compound": "C=CCC(OC(C)=O)[C@@H]1[C@@H](N(Cc2ccc(-c3cccc(C(F)(F)F)c3)o2)C(=O)Cc2ccc(F)cc2)c2cc(OCCCO)ccc2N1C(=O)Cc1ccc2ccccc2c1 (stereo not given in full)",
    "Assigned category": "not satisfied"
  },
  {
    "Compound": "COCCOC(=O)N1C(=O)[C@@]2(c3cc(C#CCNC(N)=O)ccc31)[C@H](C(=O)Nc1nc3ccccc3s1)[C@H]1C(=O)O[C@H](c3ccccc3)[C@H](c3ccccc3)N1[C@@H]2c1ccccc1OCCO",
    "Assigned category": "not satisfied"
  }
]
